Data origin, for the record: patent US7511065B2

Recorded IC50 by entry
# measured.target: MLK-7 (Homo sapiens)
# Construct: GST; His tag
# Sequence (Q9NYL2 1-455 isoform Q9NYL2-2): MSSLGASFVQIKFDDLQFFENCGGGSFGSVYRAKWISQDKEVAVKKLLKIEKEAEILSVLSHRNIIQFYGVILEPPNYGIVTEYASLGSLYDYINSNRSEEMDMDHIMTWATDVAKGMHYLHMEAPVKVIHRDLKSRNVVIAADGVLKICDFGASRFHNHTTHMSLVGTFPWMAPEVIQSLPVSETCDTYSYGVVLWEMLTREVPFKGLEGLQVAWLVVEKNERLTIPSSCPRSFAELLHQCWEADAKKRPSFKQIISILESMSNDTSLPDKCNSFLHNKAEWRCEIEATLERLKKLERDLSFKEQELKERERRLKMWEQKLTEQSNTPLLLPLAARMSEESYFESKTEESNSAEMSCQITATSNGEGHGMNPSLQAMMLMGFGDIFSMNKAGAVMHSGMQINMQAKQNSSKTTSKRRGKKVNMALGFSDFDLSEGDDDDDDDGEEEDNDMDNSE
# protocol.notes: In vitro assay of purified MLK-7 kinase activity (33P transfer from ATP to myelin basic protein)
# condition: recombinant GST-tagged MLK-7 at 1 nm, 30 uM ATP, 5 uM MBP substrate, 2 hours room temperature; read-out: MLK7 IC50

>  <chemical.string>
NS(=O)(=O)c1ccccc1-c1ccc2c(-c3c(-c4ccccn4)nn4c3CCC4)ccnc2c1

>  <measured.target>
MLK-7 (Homo sapiens)

>  <IC50>
≤ 1000 nM

$$$$
>  <chemical.string>
CC(C)(C)OC(=O)NCCNC(=O)c1ccc(-c2ccc3c(-c4c(-c5ccccn5)nn5c4CCC5)ccnc3c2)cc1

>  <measured.target>
MLK-7 (Homo sapiens)

>  <IC50>
≤ 100 nM

$$$$
>  <chemical.string>
CN(C)CCCOc1ccc(-c2ccc3c(-c4c(-c5ccccn5)nn5c4CCC5)ccnc3c2)cc1

>  <measured.target>
MLK-7 (Homo sapiens)

>  <IC50>
≤ 100 nM

$$$$
>  <chemical.string>
Cc1cccc(-c2nn3c(c2-c2ccnc4cc(-c5ccc(Cl)cc5)ccc24)CCC3)n1

>  <measured.target>
MLK-7 (Homo sapiens)

>  <IC50>
≤ 1000 nM

$$$$
>  <chemical.string>
CCOC(=O)CCNC(=O)c1ccc(-c2ccc3c(-c4c(-c5ccccn5)nn5c4CCC5)ccnc3c2)cc1

>  <measured.target>
MLK-7 (Homo sapiens)

>  <IC50>
≤ 100 nM

$$$$
>  <chemical.string>
O=[N+]([O-])c1ccccc1-c1ccc2c(-c3c(-c4ccccn4)nn4c3CCC4)ccnc2c1

>  <measured.target>
MLK-7 (Homo sapiens)

>  <IC50>
≤ 1000 nM

$$$$
>  <chemical.string>
Nc1ccccc1-c1ccc2c(-c3c(-c4ccccn4)nn4c3CCC4)ccnc2c1

>  <measured.target>
MLK-7 (Homo sapiens)

>  <IC50>
≤ 1000 nM

$$$$
>  <chemical.string>
O=C(NCCN1CCOCC1)c1ccc(-c2ccc3c(-c4c(-c5ccccn5)nn5c4CCC5)ccnc3c2)cc1

>  <measured.target>
MLK-7 (Homo sapiens)

>  <IC50>
≤ 100 nM

$$$$
>  <chemical.string>
c1ccc(-c2ccc3c(-c4c(-c5ccccn5)nn5c4CCC5)ccnc3c2)cc1

>  <measured.target>
MLK-7 (Homo sapiens)

>  <IC50>
≤ 100 nM

$$$$
>  <chemical.string>
CC(=O)Nc1cccc(-c2ccc3c(-c4c(-c5ccccn5)nn5c4CCC5)ccnc3c2)c1

>  <measured.target>
MLK-7 (Homo sapiens)

>  <IC50>
≤ 100 nM

$$$$
>  <chemical.string>
CCSc1ccc(-c2ccc3c(-c4c(-c5ccccn5)nn5c4CCC5)ccnc3c2)cc1

>  <measured.target>
MLK-7 (Homo sapiens)

>  <IC50>
≤ 1000 nM

$$$$
>  <chemical.string>
c1ccc(-c2nn3c(c2-c2ccnc4cc(-c5ccsc5)ccc24)CCC3)nc1

>  <measured.target>
MLK-7 (Homo sapiens)

>  <IC50>
≤ 100 nM

$$$$
>  <chemical.string>
Oc1ccc(-c2ccc3c(-c4c(-c5ccccn5)nn5c4CCC5)ccnc3c2)cc1

>  <measured.target>
MLK-7 (Homo sapiens)

>  <IC50>
≤ 100 nM

$$$$
>  <chemical.string>
CCOc1ccccc1-c1ccc2c(-c3c(-c4ccccn4)nn4c3CCC4)ccnc2c1

>  <measured.target>
MLK-7 (Homo sapiens)

>  <IC50>
≤ 10000 nM

$$$$
>  <chemical.string>
Brc1ccc(-c2ccc3c(-c4c(-c5ccccn5)nn5c4CCC5)ccnc3c2)cc1

>  <measured.target>
MLK-7 (Homo sapiens)

>  <IC50>
≤ 100 nM

$$$$
>  <chemical.string>
O=C(O)C(F)F.c1ccc(-c2nn3c(c2-c2ccnc4cc(-c5ncccn5)ccc24)CCC3)nc1

>  <measured.target>
MLK-7 (Homo sapiens)

>  <IC50>
≤ 1000 nM

$$$$
>  <chemical.string>
COCCOc1ccc(-c2ccc3c(-c4c(-c5ccccn5)nn5c4CCC5)ccnc3c2)cc1

>  <measured.target>
MLK-7 (Homo sapiens)

>  <IC50>
≤ 100 nM

$$$$
>  <chemical.string>
c1ccc(-c2nn3c(c2-c2ccnc4cc(C5CCCCC5)ccc24)CCC3)nc1

>  <measured.target>
MLK-7 (Homo sapiens)

>  <IC50>
≤ 10000 nM

$$$$
>  <chemical.string>
Oc1ccccc1-c1ccc2c(-c3c(-c4ccccn4)nn4c3CCC4)ccnc2c1

>  <measured.target>
MLK-7 (Homo sapiens)

>  <IC50>
≤ 1000 nM

$$$$
>  <chemical.string>
O=C(c1ccc(-c2ccc3c(-c4c(-c5ccccn5)nn5c4CCC5)ccnc3c2)cc1)N1CCSCC1

>  <measured.target>
MLK-7 (Homo sapiens)

>  <IC50>
≤ 100 nM

$$$$
>  <chemical.string>
CC(C)Cc1ccc(-c2ccc3c(-c4c(-c5ccccn5)nn5c4CCC5)ccnc3c2)cc1

>  <measured.target>
MLK-7 (Homo sapiens)

>  <IC50>
≤ 1000 nM

$$$$
>  <chemical.string>
c1ccc(-c2nn3c(c2-c2ccnc4cc(-c5ccc[nH]5)ccc24)CCC3)nc1

>  <measured.target>
MLK-7 (Homo sapiens)

>  <IC50>
≤ 100 nM

$$$$
>  <chemical.string>
c1ccc(-c2nn3c(c2-c2ccnc4cc(-c5ccc(OCCN6CCCCC6)cc5)ccc24)CCC3)nc1

>  <measured.target>
MLK-7 (Homo sapiens)

>  <IC50>
≤ 100 nM

$$$$
>  <chemical.string>
O=C(O)C(F)F.c1ccc(-c2nn3c(c2-c2ccnc4cc(-c5cncnc5)ccc24)CCC3)nc1

>  <measured.target>
MLK-7 (Homo sapiens)

>  <IC50>
≤ 1000 nM

$$$$
>  <chemical.string>
Cc1ccc(-c2ccc3c(-c4c(-c5ccccn5)nn5c4CCC5)ccnc3c2)cc1

>  <measured.target>
MLK-7 (Homo sapiens)

>  <IC50>
≤ 100 nM

$$$$
>  <chemical.string>
c1ccc(-c2nn3c(c2-c2ccnc4cc(-c5cccnc5)ccc24)CCC3)nc1

>  <measured.target>
MLK-7 (Homo sapiens)

>  <IC50>
≤ 100 nM

$$$$
>  <chemical.string>
c1ccc(-c2nn3c(c2-c2ccnc4cc(-c5ccc6c(c5)OCO6)ccc24)CCC3)nc1

>  <measured.target>
MLK-7 (Homo sapiens)

>  <IC50>
≤ 100 nM

$$$$
>  <chemical.string>
Cc1cccc(-c2nn3c(c2-c2ccnc4cc(-c5cccs5)ccc24)CCC3)n1

>  <measured.target>
MLK-7 (Homo sapiens)

>  <IC50>
≤ 100 nM

$$$$

###

// reported IC50 per item
# measured.target: MLK-7 (Homo sapiens)
# Construct: GST; His tag
# protocol.notes: In vitro assay of purified MLK-7 kinase activity (33P transfer from ATP to myelin basic protein)
# condition: recombinant GST-tagged MLK-7 at 1 nm, 30 uM ATP, 5 uM MBP substrate, 2 hours room temperature; read-out: MLK7 IC50
# Text: In Vitro Assay of Purified Mixed Lineage Kinase 7 (MLK-7) Activity: Briefly, recombinant glutathione-s-transferase (GST) tagged MLK-7 is expressed in Sf9 cells using a recombinant baculovirus created using baculovirus transfer vector pVL1392 modified to contain a GST and histidine tag. […] The phosphorylated MBP is collected on a filter and radioactivity associated with the membrane measured using a scintillation counter. […]

>  <compound>
NC(=O)CCc1ccc(-c2ccc3c(-c4c(-c5ccccn5)nn5c4CCC5)ccnc3c2)cc1

>  <measured.target>
MLK-7 (Homo sapiens)

>  <IC50>
≤ 100 nM

$$$$
>  <compound>
C[S+]([O-])c1ccc(-c2ccc3c(-c4c(-c5ccccn5)nn5c4CCC5)ccnc3c2)cc1 (stereo not shown)

>  <measured.target>
MLK-7 (Homo sapiens)

>  <IC50>
≤ 100 nM

$$$$
>  <compound>
c1ccc(-c2nn3c(c2-c2ccnc4cc(-c5ccc(OCCN6CCOCC6)cc5)ccc24)CCC3)nc1

>  <measured.target>
MLK-7 (Homo sapiens)

>  <IC50>
≤ 100 nM

$$$$
>  <compound>
COC(=O)c1cc(C(=O)OC)cc(-c2ccc3c(-c4c(-c5ccccn5)nn5c4CCC5)ccnc3c2)c1

>  <measured.target>
MLK-7 (Homo sapiens)

>  <IC50>
≤ 10000 nM

$$$$
>  <compound>
O=S1(=O)CCN(c2ccc3c(-c4c(-c5ccccn5)nn5c4CCC5)ccnc3c2)CC1

>  <measured.target>
MLK-7 (Homo sapiens)

>  <IC50>
≤ 10000 nM

$$$$
>  <compound>
Nc1nc2ccc(-c3ccc4c(-c5c(-c6ccccn6)nn6c5CCC6)ccnc4c3)cc2s1

>  <measured.target>
MLK-7 (Homo sapiens)

>  <IC50>
≤ 100 nM

$$$$
>  <compound>
O=C(O)c1cccc(-c2ccc3c(-c4c(-c5ccccn5)nn5c4CCC5)ccnc3c2)c1

>  <measured.target>
MLK-7 (Homo sapiens)

>  <IC50>
≤ 100 nM

$$$$
>  <compound>
NS(=O)(=O)c1ccc(-c2ccc3c(-c4c(-c5ccccn5)nn5c4CCC5)ccnc3c2)cc1

>  <measured.target>
MLK-7 (Homo sapiens)

>  <IC50>
≤ 100 nM

$$$$
>  <compound>
CCOc1cccc(-c2ccc3c(-c4c(-c5ccccn5)nn5c4CCC5)ccnc3c2)c1

>  <measured.target>
MLK-7 (Homo sapiens)

>  <IC50>
≤ 100 nM

$$$$
>  <compound>
Fc1ccc(-c2ccc3c(-c4c(-c5ccccn5)nn5c4CCC5)ccnc3c2)nc1

>  <measured.target>
MLK-7 (Homo sapiens)

>  <IC50>
≤ 10000 nM

$$$$
>  <compound>
OCCOc1ccc(-c2ccc3c(-c4c(-c5ccccn5)nn5c4CCC5)ccnc3c2)cc1

>  <measured.target>
MLK-7 (Homo sapiens)

>  <IC50>
≤ 100 nM

$$$$
>  <compound>
CC(C)NCCNC(=O)c1ccc(-c2ccc3c(-c4c(-c5ccccn5)nn5c4CCC5)ccnc3c2)cc1

>  <measured.target>
MLK-7 (Homo sapiens)

>  <IC50>
≤ 100 nM

$$$$
>  <compound>
c1ccc(-c2nn3c(c2-c2ccnc4cc(-n5cncn5)ccc24)CCC3)nc1

>  <measured.target>
MLK-7 (Homo sapiens)

>  <IC50>
≤ 1000 nM

$$$$
>  <compound>
c1ccc(-c2nn3c(c2-c2ccnc4cc(-c5ccncc5)ccc24)CCC3)nc1

>  <measured.target>
MLK-7 (Homo sapiens)

>  <IC50>
≤ 100 nM

$$$$
>  <compound>
c1ccc(-c2nn3c(c2-c2ccnc4cc(-n5cccn5)ccc24)CCC3)nc1

>  <measured.target>
MLK-7 (Homo sapiens)

>  <IC50>
≤ 100 nM

$$$$
>  <compound>
c1ccc(-c2nn3c(c2-c2ccnc4cc(N5CCCCC5)ccc24)CCC3)nc1

>  <measured.target>
MLK-7 (Homo sapiens)

>  <IC50>
≤ 1000 nM

$$$$
>  <compound>
O=C(c1ccc(-c2ccc3c(-c4c(-c5ccccn5)nn5c4CCC5)ccnc3c2)cc1)N1CCOCC1

>  <measured.target>
MLK-7 (Homo sapiens)

>  <IC50>
≤ 100 nM

$$$$
>  <compound>
Cc1cccc(-c2nn3c(c2-c2ccnc4cc(-c5ccccc5)ccc24)CCC3)n1

>  <measured.target>
MLK-7 (Homo sapiens)

>  <IC50>
≤ 100 nM

$$$$
>  <compound>
N#Cc1ccc(-c2ccc3c(-c4c(-c5ccccn5)nn5c4CCC5)ccnc3c2)cc1

>  <measured.target>
MLK-7 (Homo sapiens)

>  <IC50>
≤ 100 nM

$$$$
>  <compound>
c1ccc(-c2nn3c(c2-c2ccnc4cc(-c5cc6ccccc6s5)ccc24)CCC3)nc1

>  <measured.target>
MLK-7 (Homo sapiens)

>  <IC50>
≤ 1000 nM

$$$$
>  <compound>
CS(=O)(=O)Nc1ccc(-c2ccc3c(-c4c(-c5ccccn5)nn5c4CCC5)ccnc3c2)cc1

>  <measured.target>
MLK-7 (Homo sapiens)

>  <IC50>
≤ 100 nM

$$$$
>  <compound>
Cc1ccc(-c2ccc3c(-c4c(-c5ccccn5)nn5c4CCC5)ccnc3c2)cc1N

>  <measured.target>
MLK-7 (Homo sapiens)

>  <IC50>
≤ 100 nM

$$$$
>  <compound>
NS(=O)(=O)c1cccc(-c2ccc3c(-c4c(-c5ccccn5)nn5c4CCC5)ccnc3c2)c1

>  <measured.target>
MLK-7 (Homo sapiens)

>  <IC50>
≤ 100 nM

$$$$
>  <compound>
c1ccc(-c2nn3c(c2-c2ccnc4cc(-c5ccoc5)ccc24)CCC3)nc1

>  <measured.target>
MLK-7 (Homo sapiens)

>  <IC50>
≤ 100 nM

$$$$
>  <compound>
c1ccc(-c2nn3c(c2-c2ccnc4cc(-n5ccnn5)ccc24)CCC3)nc1

>  <measured.target>
MLK-7 (Homo sapiens)

>  <IC50>
≤ 1000 nM

$$$$
>  <compound>
CC(C)(C)OC(=O)CCNC(=O)c1ccc(-c2ccc3c(-c4c(-c5ccccn5)nn5c4CCC5)ccnc3c2)cc1

>  <measured.target>
MLK-7 (Homo sapiens)

>  <IC50>
≤ 100 nM

$$$$
>  <compound>
FCCOc1ccc(-c2ccc3c(-c4c(-c5ccccn5)nn5c4CCC5)ccnc3c2)cc1

>  <measured.target>
MLK-7 (Homo sapiens)

>  <IC50>
≤ 100 nM

$$$$
>  <compound>
O=C(c1ccc(-c2ccc3c(-c4c(-c5ccccn5)nn5c4CCC5)ccnc3c2)cc1)N1CCS(=O)(=O)CC1

>  <measured.target>
MLK-7 (Homo sapiens)

>  <IC50>
≤ 100 nM

$$$$
